- target: T1, human ceruloplasmin (human, UniProt P00450 20-1065)
- T1 construct: also called CP; purified CP
- T1 sequence: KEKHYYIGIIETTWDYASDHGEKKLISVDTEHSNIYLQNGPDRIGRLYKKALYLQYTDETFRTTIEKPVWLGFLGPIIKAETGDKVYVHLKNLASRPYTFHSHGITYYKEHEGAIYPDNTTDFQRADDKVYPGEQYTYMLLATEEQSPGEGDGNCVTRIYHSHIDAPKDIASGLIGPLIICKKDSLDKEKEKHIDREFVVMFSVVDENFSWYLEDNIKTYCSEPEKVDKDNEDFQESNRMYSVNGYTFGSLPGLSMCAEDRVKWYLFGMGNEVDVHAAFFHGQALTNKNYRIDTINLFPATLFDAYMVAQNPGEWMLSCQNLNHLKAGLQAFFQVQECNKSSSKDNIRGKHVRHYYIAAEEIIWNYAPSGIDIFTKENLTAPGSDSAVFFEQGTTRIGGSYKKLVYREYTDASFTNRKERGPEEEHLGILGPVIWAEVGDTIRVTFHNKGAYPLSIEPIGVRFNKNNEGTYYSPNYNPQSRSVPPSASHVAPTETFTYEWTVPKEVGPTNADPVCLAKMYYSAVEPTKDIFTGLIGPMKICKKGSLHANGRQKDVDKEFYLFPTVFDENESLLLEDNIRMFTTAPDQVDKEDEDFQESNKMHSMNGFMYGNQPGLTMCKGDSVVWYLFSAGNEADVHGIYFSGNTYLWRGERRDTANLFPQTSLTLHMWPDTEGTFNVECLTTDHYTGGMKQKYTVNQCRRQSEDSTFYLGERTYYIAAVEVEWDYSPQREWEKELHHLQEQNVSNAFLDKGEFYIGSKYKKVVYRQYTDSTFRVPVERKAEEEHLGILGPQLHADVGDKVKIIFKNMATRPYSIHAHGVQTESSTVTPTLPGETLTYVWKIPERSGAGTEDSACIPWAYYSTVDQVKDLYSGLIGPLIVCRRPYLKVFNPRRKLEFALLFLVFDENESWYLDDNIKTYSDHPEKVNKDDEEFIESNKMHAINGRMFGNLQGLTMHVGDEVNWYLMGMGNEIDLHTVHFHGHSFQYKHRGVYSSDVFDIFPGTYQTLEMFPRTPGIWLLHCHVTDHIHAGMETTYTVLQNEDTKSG
- assay comment: capture ELISA: mAb (CM, 50 ng/mL) on anti-rabbit IgG-Fc; endogenous CP in Li-heparin human plasma 1:10,000
- Procedure: Ceruloplasmin binding by the 28 recombinant anti-CP mAbs was tested as follows. Clear 96-well plates (Nunc, Maxisorp) were coated and incubated overnight at 4 degrees with 10 ug/mL goat anti-rabbit IgG-Fc (Bethyl Laboratories) in BupH carbonate-bicarbonate buffer (ThermoFisher). The coating solution was discarded, and the plates were blocked with 1% BSA in PBS at room temperature for 2 hours and then the blocking solution was discarded. […]
endpoint label: A450 (A450)
Kindly answer with a numeric value in A450, unit omitted.

INPUT: Could you tell me which A450 is on file for anti-CP mAb B (antibody, V domains shown, Recombinant full-length rabbit IgG from HEK-293; tested as conditioned medium, Protein A-purified and biotinylated) VH: QQQLEESGGGLVKPGGTLTLTCKASGIDFSSYYYMCWVRQAPGKGLEWIACIYVIDDTIYCANWAKGRFTISKTSSTTVTLQMTSLTAADTATYFCARDGSSGIRDYFDLWGPGTLVTVSS VL: AYDMTQTPASVEVAVGGTVTIKCQASESVSTWLAWYQQKPGQPPKLLIYKASDLASGVPSRFKGSGSGTEFTLTISGVECADAATYYCQQGYTYNNVENVFGGGTEVVVKG ?
OUTPUT: 1.32

INPUT: Look up A450 for this binder: anti-CP mAb A (antibody, V domains shown, Recombinant full-length rabbit IgG from HEK-293; tested as conditioned medium, Protein A-purified and biotinylated) VH: QSLEESGGDLVKPGASLTLTCKASGFDLSRFYYMCWVRQAPGKGLEWIACIYAGRTGNTYYASWAKGRFTISKTSSTTVTLQMTSLTAADTATYFCARASGDFLAYTYAMDLWGPGTLVTVSS VL: AAVLTQTPASVSAAVGGTVTISCQASQSVDNNNYLAWYQQKPGQPPKLLIYEASKLASGVPSRFSGSGSGTQFTLTISDVQCDDATTYYCAGGYSSSADANAFGGGTEVVVKG
OUTPUT: 1.4

INPUT: For anti-CP mAb H (antibody, V domains shown, Recombinant full-length rabbit IgG from HEK-293; tested as conditioned medium, Protein A-purified and biotinylated) VH: QSVEESGGRLVTPGTPLTLTCTVSGFSLSTYAMGWVRQAPGKGLEYIGIIYGGSGTFYASWAKGRFTISKTSTTVDLKITSPTTEDTATYFCARDGDDSYFDYFNLWGQGTLVTVSS VL: AAVLTQTPASVSAAVGGTVSISCQSNENIGSNLAWYQQKPGQPPKLLIYGASTLTSGVPSRFKGSGSGTAFTLTISGVQCDDAATYYCLGGYLSTSDTTFGGGTAVVVKG , what is its reported A450?
OUTPUT: 1.03
